Test: Test on the solubility of glibenclamide in additive/cyclodextrin solutions
Assay type: physicochemical
Conditions: 25 °C, aqueous with cosolvent or surfactant or cyclodextrin, thermodynamic from solid, meglumine 10% (w/v), cyclodextrin 0% (w/v), read-out: Solubility
OUTCOME_MEASURE: solubility at 1 h (mg/mL)
Could you give me the number in mg/mL? Just the number is fine.

Need solubility at 1 h of COc1ccc(Cl)cc1C(=O)NCCc1ccc(S(=O)(=O)NC(=O)NC2CCCCC2)cc1 [glibenclamide] , thanks.
19.1

###

Assay: Test on the solubility of glibenclamide in additive/cyclodextrin solutions
Type: physicochemical
Settings: 25 °C, aqueous with cosolvent or surfactant or cyclodextrin, thermodynamic from solid, meglumine 0.1% (w/v), 2-hydroxypropyl-β-cyclodextrin 0.5% (w/v), read-out: Solubility
OUTCOME_MEASURE: solubility at 1 h (µg/mL)
# unit: µg/mL | format: bare number

Param item = COc1ccc(Cl)cc1C(=O)NCCc1ccc(S(=O)(=O)NC(=O)NC2CCCCC2)cc1 [glibenclamide] ; retrieve measured solubility at 1 h.
1250

###

Assay: Test on the solubility of glibenclamide in additive/cyclodextrin solutions
Assay type: physicochemical
Settings: 25 °C, aqueous with cosolvent or surfactant or cyclodextrin, thermodynamic from solid, meglumine 5% (w/v), cyclodextrin from 5% (w/v) to 30% (w/v), read-out: water solubility of glibenclamide
OUTCOME_MEASURE: solubility at 1 h

Need solubility at 1 h of COc1ccc(Cl)cc1C(=O)NCCc1ccc(S(=O)(=O)NC(=O)NC2CCCCC2)cc1 [glibenclamide] , thanks.
25.2 to 49.4 mg/mL

###

Test: Test on the solubility of glibenclamide in additive/cyclodextrin solutions
Type: physicochemical
Conditions: 25 °C, aqueous with cosolvent or surfactant or cyclodextrin, thermodynamic from solid, sodium hydroxide 0.01% (w/v), 2-hydroxypropyl-β-cyclodextrin 5% (w/v), read-out: Solubility
OUTCOME_MEASURE: solubility at 1 h (µg/mL)
Output spec: scalar in µg/mL, unitless text.

Query: solubility at 1 h; subject: COc1ccc(Cl)cc1C(=O)NCCc1ccc(S(=O)(=O)NC(=O)NC2CCCCC2)cc1 [glibenclamide]
810

###

Experiment: Test on the solubility of glibenclamide in additive/cyclodextrin solutions
Assay type: physicochemical
Settings: 25 °C, aqueous with cosolvent or surfactant or cyclodextrin, thermodynamic from solid, sodium carbonate 0.1% (w/v), cyclodextrin from 5% (w/v) to 20% (w/v), read-out: water solubility of glibenclamide
OUTCOME_MEASURE: solubility at 1 h

May I ask what solubility at 1 h has been recorded for COc1ccc(Cl)cc1C(=O)NCCc1ccc(S(=O)(=O)NC(=O)NC2CCCCC2)cc1 [glibenclamide] ?
2350 to 10600 µg/mL

###

Test: Test on the solubility of glibenclamide in additive/cyclodextrin solutions
Assay type: physicochemical
Conditions: 25 °C, aqueous with cosolvent or surfactant or cyclodextrin, thermodynamic from solid, sodium hydroxide 0.01% (w/v), 2-hydroxypropyl-β-cyclodextrin 2.5% (w/v), read-out: Solubility
Procedure: An excess amount of glibenclamide powder was added into an aqueous solution comprising different proportion of additive (e.g., meglumine, sodium carbonate, sodium hydrogen carbonate or sodium hydroxide) and cyclodextrin (hydroxypropyl-β-cyclodextrin) to form a suspension. The suspension was placed in a constant shaking incubator, and shaken for 1 h at 25±1° C. […]
OUTCOME_MEASURE: solubility at 1 h (µg/mL)
// return numeric value only (unit: µg/mL, not printed)

Would you mind telling me what solubility at 1 h value was observed for COc1ccc(Cl)cc1C(=O)NCCc1ccc(S(=O)(=O)NC(=O)NC2CCCCC2)cc1 [glibenclamide] ?
640

###

Experiment: Test on the solubility of glibenclamide in additive/cyclodextrin solutions
Type: physicochemical
Conditions: 25 °C, aqueous with cosolvent or surfactant or cyclodextrin, thermodynamic from solid, sodium carbonate 0.1% (w/v), 2-hydroxypropyl-β-cyclodextrin 30% (w/v), read-out: Solubility
OUTCOME_MEASURE: solubility at 1 h (mg/mL)
Report as a plain number; the unit mg/mL is understood.

Field request: solubility at 1 h | item: COc1ccc(Cl)cc1C(=O)NCCc1ccc(S(=O)(=O)NC(=O)NC2CCCCC2)cc1 [glibenclamide]
10.8

###

Experiment: Test on the solubility of glibenclamide in additive/cyclodextrin solutions
Format: physicochemical
Settings: 25 °C, aqueous with cosolvent or surfactant or cyclodextrin, thermodynamic from solid, sodium hydroxide 0.01% (w/v), cyclodextrin from 10% (w/v) to 40% (w/v), read-out: solubility of glibenclamide
OUTCOME_MEASURE: solubility at 1 h

Report solubility at 1 h for COc1ccc(Cl)cc1C(=O)NCCc1ccc(S(=O)(=O)NC(=O)NC2CCCCC2)cc1 [glibenclamide] please.
~1260 µg/mL

###

Test: Test on the solubility of glibenclamide in additive/cyclodextrin solutions
Type: physicochemical
Conditions: 25 °C, aqueous with cosolvent or surfactant or cyclodextrin, thermodynamic from solid, meglumine 0.1% (w/v), 2-hydroxypropyl-β-cyclodextrin 5% (w/v), read-out: Solubility
Method: An excess amount of glibenclamide powder was added into an aqueous solution comprising different proportion of additive (e.g., meglumine, sodium carbonate, sodium hydrogen carbonate or sodium hydroxide) and cyclodextrin (hydroxypropyl-β-cyclodextrin) to form a suspension. The suspension was placed in a constant shaking incubator, and shaken for 1 h at 25±1° C. […]
OUTCOME_MEASURE: solubility at 1 h (µg/mL)
Your answer is read as µg/mL, so omit the unit and give the number.

Given the molecule COc1ccc(Cl)cc1C(=O)NCCc1ccc(S(=O)(=O)NC(=O)NC2CCCCC2)cc1 [glibenclamide] , what is its reported solubility at 1 h?
2170

###

Assay: Test on the solubility of glibenclamide in additive/cyclodextrin solutions
Assay type: physicochemical
Details: 25 °C, aqueous with cosolvent or surfactant or cyclodextrin, thermodynamic from solid, sodium hydrogen carbonate 4% (w/v), cyclodextrin from 0.5% (w/v) to 10% (w/v), read-out: water solubility of glibenclamide
OUTCOME_MEASURE: solubility at 1 h

Name the recorded solubility at 1 h for COc1ccc(Cl)cc1C(=O)NCCc1ccc(S(=O)(=O)NC(=O)NC2CCCCC2)cc1 [glibenclamide] .
320 to 1690 µg/mL

###

Experiment: Test on the solubility of glibenclamide in additive/cyclodextrin solutions
Type: physicochemical
Conditions: 25 °C, aqueous with cosolvent or surfactant or cyclodextrin, thermodynamic from solid, sodium hydrogen carbonate 4% (w/v), 2-hydroxypropyl-β-cyclodextrin 10% (w/v), read-out: Solubility
OUTCOME_MEASURE: solubility at 1 h

Give the measured solubility at 1 h of COc1ccc(Cl)cc1C(=O)NCCc1ccc(S(=O)(=O)NC(=O)NC2CCCCC2)cc1 [glibenclamide] .
1690 µg/mL

###

Assay: Test on the solubility of glibenclamide in additive/cyclodextrin solutions
Format: physicochemical
Details: 25 °C, aqueous with cosolvent or surfactant or cyclodextrin, thermodynamic from solid, meglumine only, from 0.1% (w/v) to 10% (w/v), read-out: water solubility of glibenclamide
OUTCOME_MEASURE: solubility at 1 h

Recorded solubility at 1 h for COc1ccc(Cl)cc1C(=O)NCCc1ccc(S(=O)(=O)NC(=O)NC2CCCCC2)cc1 [glibenclamide] , please?
0.96 to 19.1 mg/mL

###

Assay: Test on the solubility of glibenclamide in additive/cyclodextrin solutions
Type: physicochemical
Settings: 25 °C, aqueous with cosolvent or surfactant or cyclodextrin, thermodynamic from solid, meglumine 0.1% (w/v), 2-hydroxypropyl-β-cyclodextrin 30% (w/v), read-out: Solubility
OUTCOME_MEASURE: solubility at 1 h (µg/mL)
# output: bare number, implied unit µg/mL

Data request, read-out solubility at 1 h, for COc1ccc(Cl)cc1C(=O)NCCc1ccc(S(=O)(=O)NC(=O)NC2CCCCC2)cc1 [glibenclamide]
2210

###

Test: Test on the solubility of glibenclamide in additive/cyclodextrin solutions
Format: physicochemical
Conditions: 25 °C, aqueous with cosolvent or surfactant or cyclodextrin, thermodynamic from solid, sodium hydroxide 0.01% (w/v), 2-hydroxypropyl-β-cyclodextrin 10% (w/v), read-out: Solubility
OUTCOME_MEASURE: solubility at 1 h (µg/mL)
# number only, unit µg/mL dropped from output

Which solubility at 1 h is listed for COc1ccc(Cl)cc1C(=O)NCCc1ccc(S(=O)(=O)NC(=O)NC2CCCCC2)cc1 [glibenclamide] ?
1260

###

Experiment: Test on the solubility of glibenclamide in additive/cyclodextrin solutions
Format: physicochemical
Conditions: 25 °C, aqueous buffer, thermodynamic from solid, meglumine 1% (w/v), cyclodextrin 0% (w/v), read-out: Solubility
OUTCOME_MEASURE: solubility at 1 h

What solubility at 1 h value was documented for this compound, COc1ccc(Cl)cc1C(=O)NCCc1ccc(S(=O)(=O)NC(=O)NC2CCCCC2)cc1 [glibenclamide] ?
4930 µg/mL

###

Assay: Test on the solubility of glibenclamide in additive/cyclodextrin solutions
Type: physicochemical
Conditions: 25 °C, aqueous buffer, thermodynamic from solid, meglumine 0.1% (w/v), cyclodextrin 0% (w/v), read-out: Solubility
OUTCOME_MEASURE: solubility at 1 h
Answers without a unit are incomplete; give the number and then its unit.

Consider the molecule shown here: COc1ccc(Cl)cc1C(=O)NCCc1ccc(S(=O)(=O)NC(=O)NC2CCCCC2)cc1 [glibenclamide] What is its recorded solubility at 1 h?
0.96 mg/mL
